- STUDY_SYSTEM: Sialic acid-binding Ig-like lectin 9 (Homo sapiens) (UniProt Q9Y336)
- Sequence (Q9Y336 whole entry): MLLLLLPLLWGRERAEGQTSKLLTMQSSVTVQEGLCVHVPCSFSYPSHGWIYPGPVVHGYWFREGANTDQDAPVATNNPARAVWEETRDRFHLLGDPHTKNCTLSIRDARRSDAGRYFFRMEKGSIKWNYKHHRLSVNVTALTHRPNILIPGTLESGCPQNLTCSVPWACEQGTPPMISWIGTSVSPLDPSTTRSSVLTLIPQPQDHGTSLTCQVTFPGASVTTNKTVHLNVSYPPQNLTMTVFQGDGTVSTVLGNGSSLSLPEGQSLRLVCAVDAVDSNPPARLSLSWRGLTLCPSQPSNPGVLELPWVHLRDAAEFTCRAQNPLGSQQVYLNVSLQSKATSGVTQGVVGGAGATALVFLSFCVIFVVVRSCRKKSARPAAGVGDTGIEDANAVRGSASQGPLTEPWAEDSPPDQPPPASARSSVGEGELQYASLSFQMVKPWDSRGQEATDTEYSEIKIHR
- METHOD_DESCRIPTION: Hs-Siglec9 ALPHAscreen SOP 20170721
- Parameters: scale not given: direction of the effect not stated beside the values
- TEST_SETTINGS: 10 µM
Respond with Met for Percent Effect values of 20% and above, Not met for values below.

Take a look at these entries with their results.
Decide: Percent Effect of COc1ccccc1NC(=O)NCC(O)(c1ccccc1)C1CC1 (stereo unspecified) >= 20%?
Met

Decide: Percent Effect of CCn1ccnc1CN1CCN(C(C)C(=O)N2CCC(C)CC2)CC1 (stereo unspecified) >= 20%?
Not met

Decide: Percent Effect of Cc1nn(CCO)c(C)c1CNC1CCc2c(Cl)cccc21 (stereo unspecified) >= 20%?
Not met

Decide: Percent Effect of CCCN1CCC(N(Cc2ncc(C)o2)C(C)=O)C1 (stereo unspecified) >= 20%?
Met

Decide: Percent Effect of CCN1CCC(CNCc2cc(OC)ccc2OC)C1 (stereo unspecified) >= 20%?
Not met

Turning to the following compound.
Decide: Percent Effect of COCCC(=O)N1CCN(C)c2ncccc2C1 >= 20%?
Not met

---

- Test system: Trypanosoma cruzi
- METHOD_DESCRIPTION: Trypanosoma cruzi phosphomannomutase and mannose-1-phosphate guanylyltransferase assay
- Type: functional
- Set-up: scale not given: direction of the effect not stated beside the values
- TEST_SETTINGS: 10 µM
MEASURE_NAME: Percent Effect (%)
Output spec: scalar in %, unitless text.

Reference set, count: 4
Would you kindly share the measured Percent Effect for CS(=O)(=O)N1CCCCCC1C1CCN(c2ncccc2C#N)CC1 (stereo not given) ?
6.58

Would you kindly share the measured Percent Effect for CC(=O)Nc1nc(CN2CCCC2c2cnn(C)c2)cs1 (stereo not given) ?
9.54

Would you kindly share the measured Percent Effect for Cn1cc(C[C@H]2[C@H](O)CCN2CC2CC2)cn1 ?
1.27

Would you kindly share the measured Percent Effect for O=C(NCCCNC(=O)c1cccc(O)c1)NCc1ccccc1F ?
2.63

Others:
Would you kindly share the measured Percent Effect for CCOC(CC)C(=O)NCCC(=O)N1CCN(c2ncccn2)CC1 (stereo not given) ?
5.94

---

Quick reference for Percent Effect among some compounds
- STUDY_SYSTEM: Tyrosyl-tRNA synthetase, putative (Trypanosoma cruzi (strain CL Brener)) (UniProt Q4DSP6)
- Sequence (Q4DSP6 as listed by the source): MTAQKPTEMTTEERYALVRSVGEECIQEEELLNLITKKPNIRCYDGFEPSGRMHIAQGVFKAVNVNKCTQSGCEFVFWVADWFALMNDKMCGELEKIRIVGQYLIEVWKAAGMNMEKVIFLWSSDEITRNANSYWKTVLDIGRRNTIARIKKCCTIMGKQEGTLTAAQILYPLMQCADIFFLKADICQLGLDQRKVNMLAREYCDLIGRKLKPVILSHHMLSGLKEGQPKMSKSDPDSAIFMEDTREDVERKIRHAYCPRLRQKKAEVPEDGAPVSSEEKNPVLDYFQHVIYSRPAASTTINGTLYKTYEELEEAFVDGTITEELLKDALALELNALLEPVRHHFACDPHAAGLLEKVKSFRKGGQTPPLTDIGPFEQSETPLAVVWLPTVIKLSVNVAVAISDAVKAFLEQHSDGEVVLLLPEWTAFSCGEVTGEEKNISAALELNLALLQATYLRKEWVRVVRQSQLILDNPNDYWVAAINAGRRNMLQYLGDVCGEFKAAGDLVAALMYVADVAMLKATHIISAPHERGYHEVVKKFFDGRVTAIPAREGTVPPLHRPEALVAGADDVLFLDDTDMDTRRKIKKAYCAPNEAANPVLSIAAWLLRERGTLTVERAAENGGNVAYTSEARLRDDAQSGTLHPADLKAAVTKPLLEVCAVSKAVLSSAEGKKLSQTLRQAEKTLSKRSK
- METHOD_DESCRIPTION: Trypanosoma cruzi tyrosyl tRNA synthetase (TcYRS) SOP
- Format: functional
- Set-up: scale not given: direction of the effect not stated beside the values
- TEST_SETTINGS: 30 µM
Output spec: scalar in %, unitless text.

Reference set, count: 4
Lookup: Percent Effect / Tyrosyl-tRNA synthetase, putative (Trypanosoma cruzi (strain CL Brener)) (UniProt Q4DSP6) / O=C(NCc1nnc2n1CCCC2)N1CCc2ccccc2C1
12.7

Lookup: Percent Effect / Tyrosyl-tRNA synthetase, putative (Trypanosoma cruzi (strain CL Brener)) (UniProt Q4DSP6) / NC(=O)C1CN(C(=O)Nc2cc(Cl)cc(Cl)c2)CCO1 (stereo unspecified)
11.1

Lookup: Percent Effect / Tyrosyl-tRNA synthetase, putative (Trypanosoma cruzi (strain CL Brener)) (UniProt Q4DSP6) / CN(Cc1ccc(F)cc1)C(=O)NCc1nnc2n1CCCCC2
13.9

Lookup: Percent Effect / Tyrosyl-tRNA synthetase, putative (Trypanosoma cruzi (strain CL Brener)) (UniProt Q4DSP6) / Cc1cccc(NC(=O)CNC(=O)Cn2ncc(Cl)c(Cl)c2=O)c1C
-1.22

Others:
Lookup: Percent Effect / Tyrosyl-tRNA synthetase, putative (Trypanosoma cruzi (strain CL Brener)) (UniProt Q4DSP6) / c1cc(CNCC2CNc3ccnn3C2)cc(N2CCCCC2)n1 (stereo unspecified)
22.8

Lookup: Percent Effect / Tyrosyl-tRNA synthetase, putative (Trypanosoma cruzi (strain CL Brener)) (UniProt Q4DSP6) / CN(C)S(=O)(=O)N1CCC(Oc2ccccn2)CC1
-1.28
